Where these numbers come from: ChEMBL document CHEMBL1126454

Assign CF to each entry below.
system_tested: Thromboxane A2 receptor (Homo sapiens)
test_summary: Competition factor for Thromboxane A2 (TXA2) / Prostaglandin H2 (PGH2)-receptor was determined by CF=(ID50-test)/(ID50-standard); not parallel
Please reply with the number alone, leaving off any unit.

Q: Look at this compound and give its reported CF. O=C(O)CC/C=C\C[C@H]1[C@H](CNS(=O)(=O)c2ccc(Cl)cc2)C2CC1(c1ccc(-c3ccccc3)cc1)CO2 (stereo partly specified)
A: 0.1

Q: Look at this compound and give its reported CF. O=C(O)CCCCC[C@H]1[C@H](CNS(=O)(=O)c2ccc(Cl)cc2)C2CC1(c1ccc(-c3ccccc3)cc1)CO2 (stereo partly specified)
A: 0.3

Q: Look at this compound and give its reported CF. O=C(O)CCC/C=C\C[C@H]1[C@H](CNS(=O)(=O)c2ccc(Cl)c(Cl)c2)C2CC1(c1ccc(-c3ccccc3)cc1)CO2 (stereo partly specified)
A: 4.2

Q: Look at this compound and give its reported CF. O=C(O)CCC/C=C\C[C@H]1[C@H](CNS(=O)(=O)c2ccc(Cl)cc2)C2CC1(c1ccc(-c3ccccc3)cc1)CO2 (stereo partly specified)
A: 0.4

Q: Look at this compound and give its reported CF. O=C(O)CCCCC[C@H]1[C@H](CNS(=O)(=O)c2ccc(Cl)c(Cl)c2)C2CC1(c1ccc(-c3ccccc3)cc1)CO2 (stereo partly specified)
A: 6

Q: Look at this compound and give its reported CF. Cc1ccc(S(=O)(=O)NC[C@@H]2C3CC(c4ccc(-c5ccccc5)cc4)(CO3)[C@H]2CC=CCCCC(=O)O)cc1 (stereo partly specified)
A: 4

====

system_tested: Thromboxane A2 receptor (Homo sapiens)
test_summary: Competition factor for Thromboxane A2 (TXA2) / Prostaglandin H2 (PGH2)-receptor was determined by CF=(ID50-test)/(ID50-standard)
Mark each entry 1 if its CF sits below 90, and 0 for all others.

Q: Quick check: CF of O=C(O)CCC/C=C/C[C@@H]1[C@@H](COCc2ccccc2)C2CC1(c1ccccc1)CO2 (stereo partly specified) under 90?
A: 0

Q: Quick check: CF of CCCCC[C@H](O)/C=C/[C@H]1C2CC(CCc3ccccc3)(CO2)[C@@H]1C/C=C/CCCC(=O)O (stereo partly specified) under 90?
A: 0

Q: Quick check: CF of O=C(O)CCC/C=C/C[C@H]1[C@H](NS(=O)(=O)c2ccc(F)cc2)C2CC1(c1ccc(O)cc1)CO2 (stereo partly specified) under 90?
A: 1

Q: Quick check: CF of O=C(O)CCCCCC[C@H]1[C@H](CNS(=O)(=O)c2ccc(Cl)c(Cl)c2)C2CC1(c1ccc(-c3ccccc3)cc1)CO2 (stereo partly specified) under 90?
A: 1

Q: Quick check: CF of O=C(O)CCCCCC[C@H]1[C@H](CNS(=O)(=O)c2ccc(Cl)cc2)C2CC1(c1ccc(-c3ccccc3)cc1)CO2 (stereo partly specified) under 90?
A: 1

Q: Quick check: CF of O=C(O)CCCCC[C@H]1[C@H](CNS(=O)(=O)c2ccc(Cl)c(Cl)c2)C2CC1(c1ccc(-c3ccccc3)cc1)CO2 (stereo partly specified) under 90?
A: 1

Q: Quick check: CF of O=C(O)CCC/C=C/C[C@H]1[C@H](NS(=O)(=O)c2ccc(F)cc2)C2CC1(c1ccc(-c3ccccc3)cc1)CO2 (stereo partly specified) under 90?
A: 1

Q: Quick check: CF of O=C(O)CCC/C=C/C[C@H]1[C@H](/C=N/Oc2ccc(F)cc2)C2CC1(c1ccc(-c3ccccc3)cc1)CO2 (stereo partly specified) under 90?
A: 1

Q: Quick check: CF of O=C(O)CCC/C=C/C[C@@H]1[C@@H](/C=C/[C@@H](O)COc2ccc(F)cc2)C2CC1(c1ccc(F)cc1)CO2 (stereo partly specified) under 90?
A: 0

Q: Quick check: CF of O=C(O)CCC/C=C/C[C@@H]1[C@@H](COCc2ccccc2)C2CC1(C#Cc1ccccc1)CO2 (stereo in doubt) under 90?
A: 1

Q: Quick check: CF of Cc1ccc(S(=O)(=O)N[C@@H]2C3CC(c4cccc(F)c4)(CO3)[C@H]2C/C=C/CCCC(=O)O)cc1 (stereo partly specified) under 90?
A: 0

Q: Quick check: CF of O=C(O)CCC/C=C/C[C@H]1[C@H](COCc2ccccc2)C2CC1(c1ccc(F)cc1)CO2 (stereo partly specified) under 90?
A: 1

Q: Quick check: CF of O=C(O)CC/C=C\C[C@H]1[C@H](CNS(=O)(=O)c2ccc(F)cc2)C2CC1(c1ccc(-c3ccccc3)cc1)CO2 (stereo partly specified) under 90?
A: 1

Q: Quick check: CF of O=C(O)CCC/C=C/C[C@H]1[C@H](NS(=O)(=O)c2ccc(F)cc2)C2CC1(c1ccc(F)cc1)CO2 (stereo partly specified) under 90?
A: 0

Q: Quick check: CF of O=C(O)CCC/C=C/C[C@H]1[C@H](COCc2ccccc2)C2CC1(C#Cc1ccccc1)CO2 (stereo partly specified) under 90?
A: 1

====

system_tested: Thromboxane A2 receptor (Homo sapiens) (UniProt P21731)
Sequence (whole entry): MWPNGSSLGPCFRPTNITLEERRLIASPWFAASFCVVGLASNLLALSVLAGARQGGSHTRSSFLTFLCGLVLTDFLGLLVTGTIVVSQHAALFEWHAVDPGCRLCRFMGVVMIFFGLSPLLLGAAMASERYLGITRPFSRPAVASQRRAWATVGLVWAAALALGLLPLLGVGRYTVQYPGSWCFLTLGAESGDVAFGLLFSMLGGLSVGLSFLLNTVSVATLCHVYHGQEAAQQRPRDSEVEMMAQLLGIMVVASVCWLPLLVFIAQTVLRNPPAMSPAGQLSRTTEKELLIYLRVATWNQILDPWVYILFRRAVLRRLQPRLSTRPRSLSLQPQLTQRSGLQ
test_summary: Competition factor for Thromboxane A2 (TXA2) / Prostaglandin H2 (PGH2)-receptor was determined by CF=(ID50-test)/(ID50-standard); partial agonist
Type: functional
property_measured: CF
Please reply with the number alone, leaving off any unit.

Q: Look at this compound and give its reported CF. CCC#CC[C@H](C)[C@H](O)/C=C/[C@@H]1C2CC(c3ccc(-c4ccccc4)cc3)(CO2)[C@H]1C/C=C/CCCC(=O)O (some centres undefined)
A: 20

Q: Look at this compound and give its reported CF. CCC#CC[C@H](C)[C@H](O)C#C[C@@H]1C2CC(c3ccc(-c4ccccc4)cc3)(CO2)[C@H]1C/C=C/CCCC(=O)O (some centres undefined)
A: 12

Q: Look at this compound and give its reported CF. O=C(O)CCC/C=C/C[C@H]1[C@H](/C=C/[C@@H](O)COc2ccc(F)cc2)C2CC1(c1ccc(F)cc1)CO2 (some centres undefined)
A: 2

Q: Look at this compound and give its reported CF. N#Cc1ccc(COC[C@@H]2C3CC(c4ccc(F)cc4)(CO3)[C@H]2C/C=C/CCCC(=O)O)cc1 (some centres undefined)
A: 6

====

system_tested: UniProt:P21731
test_summary: Competition factor for Thromboxane A2 (TXA2) / Prostaglandin H2 (PGH2)-receptor was determined by CF=(ID50-test)/(ID50-standard)
Assign CF to each entry below.
Please reply with the number alone, leaving off any unit.

Q: Look at this compound and give its reported CF. O=C(O)CCC/C=C/C[C@@H]1[C@@H](COCc2ccccc2)C2CC1(C#Cc1ccccc1)CO2 (stereo in doubt; 8a)
A: 30

Q: Look at this compound and give its reported CF. O=C(O)CCC/C=C/C[C@@H]1[C@@H](COCc2ccccc2)C2CC1(c1ccc(F)cc1)CO2 (stereo partly drawn)
A: 125

Q: Look at this compound and give its reported CF. O=C(O)CCC/C=C/C[C@H]1[C@H](COCc2ccccc2)C2CC1(c1ccccc1)CO2 (stereo partly drawn)
A: 60

Q: Look at this compound and give its reported CF. N#Cc1ccc(COC[C@H]2C3CC(c4ccc(F)cc4)(CO3)[C@@H]2C/C=C/CCCC(=O)O)cc1 (stereo partly drawn)
A: 900

Q: Look at this compound and give its reported CF. O=C(O)CCCCC[C@H]1[C@H](CNS(=O)(=O)c2ccc(F)cc2)C2CC1(c1ccc(-c3ccccc3)cc1)CO2 (stereo partly drawn)
A: 0.1

Q: Look at this compound and give its reported CF. O=C(O)CCC/C=C/C[C@@H]1[C@@H](COCc2ccccc2)C2CC1(Cc1ccc(-c3ccccc3)cc1)CO2 (stereo partly drawn)
A: 800

Q: Look at this compound and give its reported CF. Cc1ccc(S(=O)(=O)N[C@@H]2C3CC(c4ccc(O)cc4)(CO3)[C@H]2C/C=C/CCCC(=O)O)cc1 (stereo partly drawn)
A: 520

Q: Look at this compound and give its reported CF. CCCCC[C@H](O)/C=C/[C@H]1C2CC(Cc3ccccc3)(CO2)[C@@H]1C/C=C/CCCC(=O)O (stereo partly drawn)
A: 250
